tested on: HCT-116 (colorectal carcinoma) cell line; assay: CellTiter-Glo luminescent cell viability assay, HCT-116; assay type: cell-based, human; conditions: Homo sapiens; HCT-116, compound at 10 μM, 72 h
Answer each item with its documented viability at 10 µM.
# number then unit; no other words

# compound, viability at 10 µM
measured = [
    ("CN1CCN(C2CCN(c3c(C#N)c(NCc4ccc(Cl)cc4)nc4ccccc34)CC2)CC1 [Compound 3188CN]", "0.5%"),
]

List reported viability at 10 µM for each of these compounds:
1. CCN(CC)C1CCCN(c2c(C#N)c(NCc3ccc(Cl)cc3)nc3ccccc23)C1 (stereo not shown) [Compound 160CN]
2. CC(C)(C)NC1CCN(c2c(F)c(NCc3ccc(F)cc3)nc3ccccc23)CC1 [Compound 240F]
3. Cc1cc(CNc2nc3ccccc3c(N3CCC(NC(C)(C)C)CC3)c2C#N)ccc1Nc1nccc(-c2cccnc2)n1 [Compound 498CN]
4. CC(C)(C)NC1CCN(c2c(C#N)c(Nc3ccc(OC(F)(F)F)cc3)nc3ccccc23)CC1 [Compound 3266CN]
5. Cc1cc(Nc2nc3ccccc3c(N3CCC(NC(C)(C)C)CC3)c2C#N)ccc1Nc1ccnc(-c2cccnc2)n1 [Compound 522CN]
6. N#Cc1c(NCc2ccc(Cl)cc2)nc2ccccc2c1N1CCCC(Oc2cccc(F)c2)C1 (stereo not shown) [Compound 3240CN]
7. CC(C)(C)NC1CCN(c2c(C#N)c(NCc3ccco3)nc3ccccc23)CC1 [Compound 3302CN]

Given back:
["47.3%", "0.2%", "0.1%", "4.7%", "0.2%", "95.8%", "10.8%"]

List reported viability at 10 µM for each of these compounds:
1. N#Cc1c(NCc2ccc(Cl)cc2)nc2ccccc2c1N1CCCC(N2CCOCC2)C1 (stereo not shown) [Compound 178CN]
2. Cc1nc(Nc2nc3ccccc3c(N3CCC(NC(C)(C)C)CC3)c2C#N)n(C)n1 [Compound 3274CN]
3. CNC1CCN(c2c(C#N)c(NCc3ccc(Cl)cc3)nc3ccccc23)C1 (stereo not shown) [Compound 3192CN]

Given back:
1. 77%
2. 49.5%
3. 0.2%

From: patent US10577362B2
